Target: Human serum albumin (HSA) (Homo sapiens, UniProt P02768)
Construct: purchased Sigma-Aldrich A3782
Sequence (P02768 25-609): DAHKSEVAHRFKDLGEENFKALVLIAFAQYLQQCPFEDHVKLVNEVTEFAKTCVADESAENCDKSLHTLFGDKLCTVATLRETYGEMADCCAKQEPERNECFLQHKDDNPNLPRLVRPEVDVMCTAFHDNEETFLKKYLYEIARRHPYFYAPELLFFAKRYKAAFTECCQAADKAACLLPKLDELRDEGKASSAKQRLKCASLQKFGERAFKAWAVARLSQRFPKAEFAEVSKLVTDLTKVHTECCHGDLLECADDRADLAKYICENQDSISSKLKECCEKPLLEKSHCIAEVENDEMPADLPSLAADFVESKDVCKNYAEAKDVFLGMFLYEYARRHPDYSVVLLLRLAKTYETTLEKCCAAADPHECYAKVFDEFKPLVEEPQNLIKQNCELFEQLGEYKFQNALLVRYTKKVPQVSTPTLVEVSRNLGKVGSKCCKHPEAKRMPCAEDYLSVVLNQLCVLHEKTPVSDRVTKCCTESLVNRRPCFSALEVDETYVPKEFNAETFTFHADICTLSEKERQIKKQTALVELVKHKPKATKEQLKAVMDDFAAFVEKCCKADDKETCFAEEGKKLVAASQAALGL
Test: SPR binding kinetic measurement on immobilized HSA
Conditions: SPR, steady-state phase data; read-out: Steady State KD
Protocol: Binding kinetic measurement was performed using Reichert 4-chanel SPR instrument Reichert4SPR (Reichert, USA). HSA was immobilized on carboxymethyl dextran chip at the condition of 0.1 mg/mL protein in 10 mM sodium acetate (pH 4.5). The final density is about 12,000 RU and flow rate is 20 μl/min. During immobilizing, the sensor chip was preconditioned with 3-min injection of double diluted water. […]

[
  {
    "compound": "CC(=O)OCCC(C)CCC=C(C)C (stereo not shown) [NSC48693]",
    "Kd / µM": 12.3
  }
]
